For each record, write down the corresponding hERG current change (%, negative = inhibition) at 10uM.
- Assay target: human ether-à-go-go-related gene (hERG) potassium channel (human, UniProt Q12809);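 also: peak tail current of the secondary pulse compared with the same well before compound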
- Sequence (Q12809 whole entry, looked up): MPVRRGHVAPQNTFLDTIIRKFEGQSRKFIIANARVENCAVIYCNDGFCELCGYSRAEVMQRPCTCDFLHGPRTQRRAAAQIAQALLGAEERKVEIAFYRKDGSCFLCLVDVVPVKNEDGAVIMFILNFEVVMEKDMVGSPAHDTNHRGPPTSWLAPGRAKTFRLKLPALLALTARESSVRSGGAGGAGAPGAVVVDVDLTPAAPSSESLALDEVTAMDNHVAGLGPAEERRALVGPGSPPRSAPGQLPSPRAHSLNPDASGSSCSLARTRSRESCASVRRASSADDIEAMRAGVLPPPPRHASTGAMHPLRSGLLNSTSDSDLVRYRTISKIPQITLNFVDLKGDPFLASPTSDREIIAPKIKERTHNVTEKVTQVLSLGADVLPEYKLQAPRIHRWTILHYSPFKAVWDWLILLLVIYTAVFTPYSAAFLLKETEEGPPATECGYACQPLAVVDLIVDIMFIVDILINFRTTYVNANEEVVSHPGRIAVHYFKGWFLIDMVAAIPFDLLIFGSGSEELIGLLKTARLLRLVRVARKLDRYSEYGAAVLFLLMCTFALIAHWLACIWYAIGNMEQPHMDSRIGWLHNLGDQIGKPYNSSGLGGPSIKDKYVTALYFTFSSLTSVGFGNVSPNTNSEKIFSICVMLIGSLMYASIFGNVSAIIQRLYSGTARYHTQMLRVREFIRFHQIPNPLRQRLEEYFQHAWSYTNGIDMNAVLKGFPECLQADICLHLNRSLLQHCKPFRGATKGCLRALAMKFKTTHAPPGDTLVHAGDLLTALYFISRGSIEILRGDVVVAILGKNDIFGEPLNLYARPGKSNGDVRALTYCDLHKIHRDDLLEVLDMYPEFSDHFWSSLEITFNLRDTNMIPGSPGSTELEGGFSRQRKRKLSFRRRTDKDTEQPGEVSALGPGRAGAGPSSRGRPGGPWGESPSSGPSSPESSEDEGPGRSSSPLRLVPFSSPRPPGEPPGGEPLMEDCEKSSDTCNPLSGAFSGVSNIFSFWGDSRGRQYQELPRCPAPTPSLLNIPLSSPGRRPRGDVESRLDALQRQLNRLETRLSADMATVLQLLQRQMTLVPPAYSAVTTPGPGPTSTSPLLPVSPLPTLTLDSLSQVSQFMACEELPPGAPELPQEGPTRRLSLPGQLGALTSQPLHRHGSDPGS
- Assay summary: primary screen, population patch clamp on CHO cells stably expressing hERG; higher = less effect of the substance
Among all 310,000 compounds or so, about 14,000 (4.5%) showed an effect of 50% or more. Effects have a minus sign here. The full list was thinned out, with strong results kept by preference.
Numbers only, in %.

structure_notation=CCN(CC)CCN(C(=O)c1c(F)cccc1F)c1nc2cc(C)cc(C)c2s1.Cl unit_name=% assay_value=-11.1
structure_notation=Cc1ccc(S(=O)(=O)/C(C#N)=C/c2c(N3CCC(C(N)=O)CC3)nc3c(C)cccn3c2=O)cc1 unit_name=% assay_value=-71.4

Okay, now this molecule:
Sample Cc1cccnc1NC(=O)C1CCN(S(=O)(=O)c2ccc3c(c2)CCC(=O)N3)CC1 — what was its hERG current change (%, negative = inhibition) at 10uM? 16.1

---

- Assay target: human ether-à-go-go-related gene (hERG) potassium channel (human);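 also: peak tail current of the secondary pulse compared with the same well before compound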
- Assay summary: primary screen, population patch clamp on CHO cells stably expressing hERG; higher = less effect of the substance
About 14,000 (4.5%) of roughly 310,000 compounds showed an effect of 50% or more. The effect is printed as a negative number. The list comes from a sample in which strong results are over-represented; it also holds close analogues and randomly drawn compounds.
Quantity: hERG current change (%, negative = inhibition) at 10uM (%)
Give bare numbers, in %.

Dear colleague, could you send me hERG current change (%, negative = inhibition) at 10uM for each of the items below? Thanks.
1. O=C(NCc1cccnc1)c1ccc(COc2ccc(Cl)cc2)cc1
2. CC(=O)NCC(O)c1ccc([N+](=O)[O-])cc1 (stereo not drawn)

-58.6
13.6

Sample O=C(COc1ccc(C(=O)NCc2cccnc2)cc1)Nc1cccc(C(F)(F)F)c1 — what was its hERG current change (%, negative = inhibition) at 10uM? -60.6

---

- Assay target: human ether-à-go-go-related gene (hERG) potassium channel (human);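 also: peak tail current of the secondary pulse compared with the same well before compound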
- Assay summary: primary screen, population patch clamp on CHO cells stably expressing hERG; higher = less effect of the substance
Among all 310,000 compounds or so, about 14,000 (4.5%) showed an effect of 50% or more. Effects have a minus sign here. Shown is part of a subset that was picked to be rich in strong results.
Quantity: hERG current change (%, negative = inhibition) at 10uM (%)
Answers are plain numbers, in %.

Example entries and their recorded answers appear below.
compound="COc1cccc(C(=O)C2CCCN(Cc3cccc(OCCO)c3)C2)c1 (centres unmarked)" unit_name=% assay_value=-48.7
compound=O=C(Nc1ccc2c(c1)OCCO2)C1CCN(C(=O)c2ccc(F)cc2)CC1 unit_name=% assay_value=3.73
compound="COc1cccc(CN2CCCC(C(=O)N3CCCCC3)C2)c1.O=C(O)C(=O)O (centres unmarked)" unit_name=% assay_value=5.13
compound=O=[N+]([O-])c1ccc(Cl)cc1NCCCN1CCOCC1 unit_name=% assay_value=0.725

Okay, now this compound:
Sample CC1(C)NC(=O)N(CC(O)COc2ccccc2C(=O)Nc2ccccc2)C1=O (centres unmarked) — what was its hERG current change (%, negative = inhibition) at 10uM? -6.2

---

- Assay target: human ether-à-go-go-related gene (hERG) potassium channel (human);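 also: peak tail current of the secondary pulse compared with the same well before compound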
- Assay summary: primary screen, population patch clamp on CHO cells stably expressing hERG; higher = less effect of the substance
Hit rate of the full screen: of about 310,000 compounds, about 14,000 (4.5%) showed an effect of 50% or more. Effects have a minus sign here. What follows is part of a selection rich in strong results, with near analogues and random picks from the rest.
For each record, write down the corresponding hERG current change (%, negative = inhibition) at 10uM.
One number for each entry, in %.

molecule="CCOc1ccc(S(=O)(=O)N2CCC(C(=O)OC(C)C(=O)N3CCOCC3)CC2)cc1 (stereo not shown)" unit_name=% assay_value=-25.2
molecule=O=C(CSc1nnc(-c2ccncc2)n1Cc1ccco1)Nc1ccccc1F unit_name=% assay_value=-20.4
molecule=O=C(COc1ccccc1Cl)NCCCNC(=O)c1ccco1 unit_name=% assay_value=2.17

Sample O=C1CC(NCc2ccc3c(c2)OCO3)C(=O)N1Cc1ccc2c(c1)OCO2 (stereo not shown) — what was its hERG current change (%, negative = inhibition) at 10uM? -4.06
